Measured values drawn from patent US7417027B2 for this set.

Catalogue of molecules with associated percent inhibition of 125I-NDP-alpha-MSH binding, MC4-R
# tgt: MC4-R (Homo sapiens, UniProt P32245)
# Sequence (P32245 whole entry): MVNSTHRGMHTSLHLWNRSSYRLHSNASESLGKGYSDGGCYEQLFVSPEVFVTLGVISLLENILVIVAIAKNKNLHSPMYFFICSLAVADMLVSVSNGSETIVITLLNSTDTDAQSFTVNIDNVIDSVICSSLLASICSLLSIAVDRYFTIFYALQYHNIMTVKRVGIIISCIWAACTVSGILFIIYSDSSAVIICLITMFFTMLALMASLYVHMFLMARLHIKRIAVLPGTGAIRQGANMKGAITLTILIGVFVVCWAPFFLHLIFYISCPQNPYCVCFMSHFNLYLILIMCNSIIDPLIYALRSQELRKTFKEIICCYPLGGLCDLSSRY
# assay method text: Competitive inhibition binding assay, 125I-NDP-alpha-MSH, hMC4-R membranes
# Set-up: expressed in transfected cells
# assay context: hMC4-R membranes; 0.4 nM 125I-NDP-alpha-MSH; mean of triplicate; peptide concentration not given
Non-standard residues stand in square brackets, D forms with d. Residues, ends and D or L forms follow the SMILES beside them. *: point of attachment. dPhe(4-Cl) = N[C@H](Cc1ccc(Cl)cc1)C(=O)O; d2Nal = N[C@H](Cc1ccc2ccccc2c1)C(=O)O; Ahp = NCCCCCCC(=O)O; Bn = c1ccc(C*)cc1
Numeric only. Scale: %

Solved entries (count: 5):
# molecule, tgt, obs value
data = [
    ("C[C@H](NC(=O)[C@H](Cc1c[nH]c2ccccc12)NC(=O)[C@H](CCCNC(=N)N)NC(=O)[C@@H](Cc1ccc(Cl)cc1)NC(=O)[C@H](COCc1ccccc1)NC(=O)CCCCCCN)C(N)=O (H-[Ahp]S(Bn)[dPhe(4-Cl)]RWA-NH2)", "MC4-R (Homo sapiens, UniProt P32245)", 100),
    ("N=C(N)NCCC[C@H](NC(=O)[C@@H](Cc1ccc2ccccc2c1)NC(=O)[C@H](COCc1ccccc1)NC(=O)CCCCCCN)C(=O)N[C@@H](Cc1c[nH]c2ccccc12)C(N)=O (H-[Ahp]S(Bn)[d2Nal]RW-NH2)", "MC4-R (Homo sapiens, UniProt P32245)", 99),
    ("N=C(N)NCCCC(NC(=O)C(Cc1ccc(Cl)cc1)NC(=O)C(COCc1ccccc1)NC(=O)CCCCCCN)C(=O)NC(Cc1c[nH]c2ccccc12)C(N)=O (stereo not drawn)", "MC4-R (Homo sapiens, UniProt P32245)", 99),
    ("N=C(N)NCCC[C@H](NC(=O)[C@@H](Cc1ccc2ccccc2c1)NC(=O)[C@H](COCc1ccccc1)NC(=O)CCCCCCN)C(=O)N[C@H](Cc1c[nH]c2ccccc12)C(N)=O (H-[Ahp]S(Bn)[d2Nal]R[dW]-NH2)", "MC4-R (Homo sapiens, UniProt P32245)", 100),
    ("N=C(N)NCCC[C@H](NC(=O)[C@@H](Cc1ccc(Cl)cc1)NC(=O)[C@H](COCc1ccccc1)NC(=O)CCCCCCN)C(=O)N[C@@H](Cc1c[nH]c2ccccc12)C(=O)N[C@@H](CC(=O)O)C(N)=O (H-[Ahp]S(Bn)[dPhe(4-Cl)]RWD-NH2)", "MC4-R (Homo sapiens, UniProt P32245)", 98),
]

[Q] Name the reported percent inhibition of 125I-NDP-alpha-MSH binding, MC4-R value associated with the molecule N=C(N)NCCC[C@H](NC(=O)[C@@H](Cc1ccc(Cl)cc1)NC(=O)[C@H](COCc1ccccc1)NC(=O)CCCCCCN)C(=O)N[C@@H](Cc1c[nH]c2ccccc12)C(=O)N[C@@H](CC(=O)O)C(=O)N[C@@H](Cc1ccccc1)C(N)=O (H-[Ahp]S(Bn)[dPhe(4-Cl)]RWDF-NH2)
[A] 100

---

# tgt: hMC5-R (Homo sapiens, UniProt P33032)
# Construct: expressed in transfected cells
# Sequence (P33032 whole entry): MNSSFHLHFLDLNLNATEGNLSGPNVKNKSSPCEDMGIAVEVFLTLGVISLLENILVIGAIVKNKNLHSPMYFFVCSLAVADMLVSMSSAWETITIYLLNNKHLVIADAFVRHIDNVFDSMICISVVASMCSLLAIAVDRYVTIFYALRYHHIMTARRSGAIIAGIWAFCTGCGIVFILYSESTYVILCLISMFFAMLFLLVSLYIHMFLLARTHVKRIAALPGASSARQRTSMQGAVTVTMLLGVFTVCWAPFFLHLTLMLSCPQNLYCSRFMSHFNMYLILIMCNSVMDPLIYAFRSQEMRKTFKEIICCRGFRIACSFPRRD
# assay method text: Competitive inhibition binding assay, 125I-NDP-alpha-MSH, hMC5-R membranes
# assay context: hMC5-R membranes; 0.4 nM 125I-NDP-alpha-MSH; mean of triplicate; peptide concentration not given
Non-standard residues stand in square brackets, D forms with d. Residues, ends and D or L forms follow the SMILES beside them. *: point of attachment. dPhe(4-Cl) = N[C@H](Cc1ccc(Cl)cc1)C(=O)O; d2Nal = N[C@H](Cc1ccc2ccccc2c1)C(=O)O; Ahp = NCCCCCCC(=O)O; Bn = c1ccc(C*)cc1
Known percent inhibition of 125I-NDP-alpha-MSH binding, MC5-R of a selection of compounds
Answer with a number only, understood to be in %.

Below, each entry is followed by its recorded percent inhibition of 125I-NDP-alpha-MSH binding, MC5-R result.
# compound, units, obs value
measured = [
    ("N=C(N)NCCC[C@H](NC(=O)[C@@H](Cc1ccc2ccccc2c1)NC(=O)[C@H](COCc1ccccc1)NC(=O)CCCCCCN)C(=O)N[C@H](Cc1c[nH]c2ccccc12)C(N)=O (H-[Ahp]S(Bn)[d2Nal]R[dW]-NH2)", "%", 82),
    ("C[C@H](NC(=O)[C@H](Cc1c[nH]c2ccccc12)NC(=O)[C@H](CCCNC(=N)N)NC(=O)[C@@H](Cc1ccc(Cl)cc1)NC(=O)[C@H](COCc1ccccc1)NC(=O)CCCCCCN)C(N)=O (H-[Ahp]S(Bn)[dPhe(4-Cl)]RWA-NH2)", "%", 79),
    ("N=C(N)NCCC[C@H](NC(=O)[C@@H](Cc1ccc(Cl)cc1)NC(=O)[C@H](COCc1ccccc1)NC(=O)CCCCCCN)C(=O)N[C@@H](Cc1c[nH]c2ccccc12)C(=O)N[C@@H](CC(=O)O)C(N)=O (H-[Ahp]S(Bn)[dPhe(4-Cl)]RWD-NH2)", "%", 48),
    ("N=C(N)NCCC[C@H](NC(=O)[C@@H](Cc1ccc2ccccc2c1)NC(=O)[C@H](COCc1ccccc1)NC(=O)CCCCCCN)C(=O)N[C@@H](Cc1c[nH]c2ccccc12)C(N)=O (H-[Ahp]S(Bn)[d2Nal]RW-NH2)", "%", 82),
    ("N=C(N)NCCCC(NC(=O)C(Cc1ccc(Cl)cc1)NC(=O)C(COCc1ccccc1)NC(=O)CCCCCCN)C(=O)NC(Cc1c[nH]c2ccccc12)C(N)=O (stereo not drawn)", "%", 73),
]

[Q] Return reported percent inhibition of 125I-NDP-alpha-MSH binding, MC5-R; argument: N=C(N)NCCC[C@H](NC(=O)[C@@H](Cc1ccc(Cl)cc1)NC(=O)[C@H](COCc1ccccc1)NC(=O)CCCCCCN)C(=O)N[C@@H](Cc1c[nH]c2ccccc12)C(=O)N[C@@H](CC(=O)O)C(=O)N[C@@H](Cc1ccccc1)C(N)=O (H-[Ahp]S(Bn)[dPhe(4-Cl)]RWDF-NH2)
[A] 54

---

# tgt: MC4-R (Homo sapiens)
# assay method text: Functional evaluation: intracellular cAMP accumulation in HEK-293 cells expressing MC4-R (agonist/antagonist status)
# Assay type: cell-based
# Set-up: expressed in transfected cells; host or cells: HEK-293
# assay context: with or without alpha-MSH, 1 hour at 37° C
Non-standard residues stand in square brackets, D forms with d. Residues, ends and D or L forms follow the SMILES beside them. *: point of attachment. dPhe(4-Cl) = N[C@H](Cc1ccc(Cl)cc1)C(=O)O; d2Nal = N[C@H](Cc1ccc2ccccc2c1)C(=O)O; Ahp = NCCCCCCC(=O)O; Bn = c1ccc(C*)cc1
experimental readout: HEK-293 (MC4-R) cells Classification

A selection of reference data follows.
# compound, tgt, experimental readout, obs value
data = [
    ("N=C(N)NCCC[C@H](NC(=O)[C@@H](Cc1ccc2ccccc2c1)NC(=O)[C@H](COCc1ccccc1)NC(=O)CCCCCCN)C(=O)N[C@H](Cc1c[nH]c2ccccc12)C(N)=O (H-[Ahp]S(Bn)[d2Nal]R[dW]-NH2)", "MC4-R (Homo sapiens)", "HEK-293 (MC4-R) cells Classification", "Antagonist"),
    ("N=C(N)NCCC[C@H](NC(=O)[C@@H](Cc1ccc2ccccc2c1)NC(=O)[C@H](COCc1ccccc1)NC(=O)CCCCCCN)C(=O)N[C@@H](Cc1c[nH]c2ccccc12)C(N)=O (H-[Ahp]S(Bn)[d2Nal]RW-NH2)", "MC4-R (Homo sapiens)", "HEK-293 (MC4-R) cells Classification", "Antagonist"),
    ("N=C(N)NCCC[C@H](NC(=O)[C@@H](Cc1ccc(Cl)cc1)NC(=O)[C@H](COCc1ccccc1)NC(=O)CCCCCCN)C(=O)N[C@@H](Cc1c[nH]c2ccccc12)C(=O)N[C@@H](CC(=O)O)C(N)=O (H-[Ahp]S(Bn)[dPhe(4-Cl)]RWD-NH2)", "MC4-R (Homo sapiens)", "HEK-293 (MC4-R) cells Classification", "Agonist"),
    ("N=C(N)NCCC[C@H](NC(=O)[C@@H](Cc1ccc(Cl)cc1)NC(=O)[C@H](COCc1ccccc1)NC(=O)CCCCCCN)C(=O)N[C@@H](Cc1c[nH]c2ccccc12)C(=O)N[C@@H](CC(=O)O)C(=O)N[C@@H](Cc1ccccc1)C(N)=O (H-[Ahp]S(Bn)[dPhe(4-Cl)]RWDF-NH2)", "MC4-R (Homo sapiens)", "HEK-293 (MC4-R) cells Classification", "Agonist"),
    ("C[C@H](NC(=O)[C@H](Cc1c[nH]c2ccccc12)NC(=O)[C@H](CCCNC(=N)N)NC(=O)[C@@H](Cc1ccc(Cl)cc1)NC(=O)[C@H](COCc1ccccc1)NC(=O)CCCCCCN)C(N)=O (H-[Ahp]S(Bn)[dPhe(4-Cl)]RWA-NH2)", "MC4-R (Homo sapiens)", "HEK-293 (MC4-R) cells Classification", "Agonist"),
]

We now examine a further compound.
[Q] Fill in the blank: the reported HEK-293 (MC4-R) cells Classification of N=C(N)NCCCC(NC(=O)C(Cc1ccc(Cl)cc1)NC(=O)C(COCc1ccccc1)NC(=O)CCCCCCN)C(=O)NC(Cc1c[nH]c2ccccc12)C(N)=O (stereo not drawn) is ____.
[A] Agonist
